- Experimental System: CDK2/CycE (Homo sapiens (Human))
- Protocol Details: CDK2/CycE kinase assay (Method 2)
- Assay Context: 10 μM ATP
Counter-ions that a name gives are not always drawn.
Readout: IC50 (µM)

- CS(=O)(Cc1cc(Nc2ncc(F)c(-c3ccc(F)cc3F)n2)cc(S(F)(F)(F)(F)F)c1)=NC(N)=O (single isomer, unassigned): 1.6
- N=S(=O)(CCN)Cc1cc(Nc2ncc(F)c(-c3ccc(F)cc3F)n2)cc(C(F)(F)F)c1 (racemic) [Example 25, trifluoroacetate]: 3.2
- CS(=O)(Cc1cc(Nc2ncc(F)c(-c3ccc(F)cc3F)n2)cc(C(F)(F)F)c1)=NC(N)=O (single isomer, unassigned) [Example 23]: 0.37
- CS(=N)(=O)Cc1cc(F)cc(Nc2ncc(F)c(-c3ccc(F)cc3F)n2)c1 (single isomer, unassigned) [Example 12]: 1.7
- N=S(=O)(CCN)Cc1cc(Nc2ncc(F)c(-c3ccc(F)cc3F)n2)cc(C(F)(F)F)c1 (single isomer, unassigned) [Example 26]: 1.3
- CCOC(=O)N=S(C)(=O)Cc1cccc(Nc2ncc(F)c(-c3ccc(F)cc3F)n2)c1 (racemic): 0.56

----------
- Experimental System: CDK9/CycT1 (Homo sapiens (Human), UniProt P50750)
- Sequence (P50750 whole entry): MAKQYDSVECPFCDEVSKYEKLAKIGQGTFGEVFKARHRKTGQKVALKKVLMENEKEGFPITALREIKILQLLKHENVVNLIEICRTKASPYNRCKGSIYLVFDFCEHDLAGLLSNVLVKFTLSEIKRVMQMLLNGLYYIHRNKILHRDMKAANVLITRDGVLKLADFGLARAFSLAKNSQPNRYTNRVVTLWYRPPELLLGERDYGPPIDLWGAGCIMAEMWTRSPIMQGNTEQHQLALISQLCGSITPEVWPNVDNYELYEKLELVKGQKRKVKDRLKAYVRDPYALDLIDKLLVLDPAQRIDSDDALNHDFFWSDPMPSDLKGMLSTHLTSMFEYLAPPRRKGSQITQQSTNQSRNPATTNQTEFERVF
- Sequence (O60563 whole entry partner): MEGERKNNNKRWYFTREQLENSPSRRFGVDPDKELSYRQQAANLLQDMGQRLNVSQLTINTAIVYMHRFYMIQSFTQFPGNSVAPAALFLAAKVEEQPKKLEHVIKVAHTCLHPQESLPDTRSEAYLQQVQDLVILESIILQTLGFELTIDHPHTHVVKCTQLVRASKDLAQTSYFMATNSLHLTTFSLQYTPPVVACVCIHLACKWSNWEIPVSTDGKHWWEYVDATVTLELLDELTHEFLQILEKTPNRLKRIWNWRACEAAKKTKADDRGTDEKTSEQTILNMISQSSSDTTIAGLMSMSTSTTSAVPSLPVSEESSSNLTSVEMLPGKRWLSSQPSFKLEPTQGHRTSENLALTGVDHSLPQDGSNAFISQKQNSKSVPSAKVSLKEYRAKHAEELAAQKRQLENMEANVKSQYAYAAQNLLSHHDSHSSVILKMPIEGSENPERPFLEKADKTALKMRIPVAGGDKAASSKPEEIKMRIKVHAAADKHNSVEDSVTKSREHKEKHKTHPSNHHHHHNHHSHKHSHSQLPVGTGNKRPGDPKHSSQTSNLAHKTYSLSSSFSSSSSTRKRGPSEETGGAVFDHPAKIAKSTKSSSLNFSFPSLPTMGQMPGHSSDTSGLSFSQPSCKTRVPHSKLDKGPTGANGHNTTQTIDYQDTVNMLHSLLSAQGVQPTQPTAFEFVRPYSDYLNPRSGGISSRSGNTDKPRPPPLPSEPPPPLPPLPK
- Protocol Details: CDK9/CycT1 kinase assay (Method 1a)
- Type: biochemical
- Assay Context: derived from Methods 1a. and 2.
Readout: Selectivity CDK9/CDK2

- Cc1cc(CS(C)(=N)=O)cc(Nc2ncc(F)c(-c3ccc(F)cc3F)n2)c1 (single isomer, unassigned) [Example 38]: 38
- CS(=N)(=O)Cc1cc(Nc2ncc(F)c(-c3ccc(F)cc3F)n2)cc(S(F)(F)(F)(F)F)c1 (single isomer, unassigned) [Example 32]: 263
- CS(=O)(Cc1cc(Nc2ncc(F)c(-c3ccc(F)cc3F)n2)cc(S(F)(F)(F)(F)F)c1)=NC#N (racemic) [Example 28]: 210
- CS(=N)(=O)Cc1cccc(Nc2ncc(F)c(-c3ccc(F)cc3F)n2)c1 (racemic) [Example 9]: 25
- CS(=O)(Cc1cc(Nc2ncc(F)c(-c3ccc(F)cc3F)n2)cc(S(F)(F)(F)(F)F)c1)=NC#N (single isomer, unassigned) [Example 29]: 198
- CS(=O)(Cc1cc(Nc2ncc(F)c(-c3ccc(F)cc3F)n2)cc(C(F)(F)F)c1)=NC(N)=O (single isomer, unassigned) [Example 23]: 88

----------
- Experimental System: CDK9/CycT1 (Homo sapiens (Human), UniProt P50750)
- Protocol Details: CDK9/CycT1 kinase assay (Method 1a)
- Type: biochemical
- Assay Context: derived from Methods 1a. and 2.
- Excerpt: 1a. CDK9/CycT1 Kinase Assay: CDK9/CycT1-inhibitory activity of compounds of the present invention was quantified employing the CDK9/CycT1 TR-FRET assay as described in the following paragraphs: Recombinant full-length His-tagged human CDK9 and CycT1, expressed in insect cells and purified by Ni-NTA affinity chromatography, were purchased from Invitrogen (Cat. No PV4131). As substrate for the kinase reaction biotinylated peptide biotin-Ttds-[…] […]
Where a name gives a salt, the structure may show the parent alone.
Readout: Selectivity CDK9/CDK2

• CS(=O)(Cc1cc(Nc2ncc(F)c(-c3ccc(F)cc3F)n2)cc(C(F)(F)F)c1)=NC#N (single isomer, unassigned) [Example 2] = 166
• CS(=O)(Cc1cc(Nc2ncc(F)c(-c3ccc(F)cc3F)n2)cc(C(F)(F)F)c1)=NC(N)=O (racemic) [Example 7] = 98
• CS(=N)(=O)Cc1cc(Nc2ncc(F)c(-c3ccc(F)cc3F)n2)cc(S(F)(F)(F)(F)F)c1 (single isomer, unassigned) [Example 31] = 16
• CS(=O)(Cc1cc(Nc2ncc(F)c(-c3ccc(F)cc3F)n2)cc(C(F)(F)F)c1)=NC(N)=O (single isomer, unassigned) [Example 24] = 66
• CS(=O)(Cc1cc(Nc2ncc(F)c(-c3ccc(F)cc3F)n2)cc(C(F)(F)F)c1)=NC#N (single isomer, unassigned) [Example 3] = 170
• CS(=N)(=O)Cc1cc(Cl)cc(Nc2ncc(F)c(-c3ccc(F)cc3F)n2)c1 (racemic) = 26
• CS(=N)(=O)Cc1cc(Nc2ncc(F)c(-c3ccc(F)cc3F)n2)cc(C(F)(F)F)c1 (single isomer, unassigned) [Example 6] = 50
• CS(=N)(=O)Cc1cc(Br)cc(Nc2ncc(F)c(-c3ccc(F)cc3F)n2)c1 (racemic) [Example 19] = 30
• N=S(=O)(CCN)Cc1cc(Nc2ncc(F)c(-c3ccc(F)cc3F)n2)cc(C(F)(F)F)c1 (racemic) [Example 25, trifluoroacetate] = 38
• Cc1cc(CS(C)(=N)=O)cc(Nc2ncc(F)c(-c3ccc(F)cc3F)n2)c1 (single isomer, unassigned) [Example 37] = 23
• CS(=N)(=O)Cc1cc(Br)cc(Nc2ncc(F)c(-c3ccc(F)cc3F)n2)c1 (single isomer, unassigned) [Example 42] = 30
• CS(=N)(=O)Cc1cc(Nc2ncc(F)c(-c3ccc(F)cc3F)n2)cc(C(F)(F)F)c1 (single isomer, unassigned) [Example 5] = 72

From: patent US9499492B2
